# target or test system: Caspase-7 (Homo sapiens)
# Sequence (P55210 24-198 limits assumed): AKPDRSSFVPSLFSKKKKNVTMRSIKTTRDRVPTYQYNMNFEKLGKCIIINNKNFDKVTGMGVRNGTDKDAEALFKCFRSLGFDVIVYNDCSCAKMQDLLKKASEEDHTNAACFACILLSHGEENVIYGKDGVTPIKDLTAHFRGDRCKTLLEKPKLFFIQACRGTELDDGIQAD
# Sequence (P55210 207-303 limits assumed): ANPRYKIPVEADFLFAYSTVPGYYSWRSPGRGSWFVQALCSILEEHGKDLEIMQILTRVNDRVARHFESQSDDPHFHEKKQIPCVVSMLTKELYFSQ
# assay name: Inhibition of human recombinant caspase-7 using Ac-DEVD-AMC as substrate assessed as accumulation of AMC preincubated for 10 mins followed by substrate addition measured after 10 mins by fluorescence assay
pIC50: −log10 of the molar value.
assay readout: pIC50

COC[C@@H]1C[C@@H](OC)CN1S(=O)(=O)c1ccc2c(c1)C(=O)C(=O)N2 ... < 3.30
CCCCN1C(=O)C(=O)c2cc(S(=O)(=O)N3C[C@@H](OCCOCCOCCOCCO)C[C@H]3COC)ccc21 ... < 3.30
COC[C@@H]1C[C@@H](OCCOCCOCCOCCO)CN1S(=O)(=O)c1ccc2c(c1)C(=O)C(=O)N2 ... < 3.30
